Test system: L1210 leukemia ip in BDF1 mice, survival T/C
Assay: NCI In Vivo Anticancer Drug Screen. Data for tumor model L1210 Leukemia (intraperitoneal) in B6D2F1 (BDF1) mice
Details: endpoint: mean survival time; dose: 400.0 mg/kg/injection; schedule: Q01DX001 (ip); vehicle: carboxymethylcellulose (CMC); higher = longer survival
Toxic doses and inconclusive results are not listed.
Answer each item with its documented T/C.

Take a look at these entries with their results.
Compound	T/C
O=C(c1ccccc1)N(c1ccccc1)c1ccccc1	103 % of control
COc1cc(OC)c2c(=O)c3ccoc3n(C)c2c1OC	93 % of control
COc1ccc(/C(C#N)=C2C=C/C(=N/O)c3ccccc3\2)cc1	89 % of control

// input: 2 compounds below; output: T/C for each
1. Cn1c(N)c(C(=O)CCCc2ccc(N(CCCl)CCCl)cc2)c(=O)n(C)c1=O
2. CCCCCCc1cc(OC(=O)c2ccccc2)ccc1OC(=O)c1ccccc1

## Result
1. 102 % of control
2. 97 % of control

====

Tested on: L1210 leukemia ip in BDF1 mice, survival T/C
Assay: NCI In Vivo Anticancer Drug Screen. Data for tumor model L1210 Leukemia (intraperitoneal) in B6D2F1 (BDF1) mice
Conditions: endpoint: mean survival time; dose: 200.0 mg/kg/injection; schedule: Q04DX003 (ip); vehicle: Klucel (hydroxypropylcellulose) (HPC); higher = longer survival
Inconclusive results and toxic doses are left out.
Measured quantity: T/C

Compound	T/C
[O-][n+]1c2ccccc2nc2cc(Cl)ccc21	100 % of control
Cc1ccc(/C=N/NC(=O)c2ccc(N=NN(C)C)cc2)cc1	100 % of control

// input: 5 compounds below; output: T/C for each
1. Nc1nc(N)c(CCCOc2ccc(NC(=O)CCCc3ccc(NC(=O)CBr)cc3)cc2)c(N)n1
2. C[Si](C)(CCCC(N)C(=O)O)O[Si](C)(C)CCCC(N)C(=O)O (stereo unspecified)
3. O=C(Nc1ccc(Br)cc1C(F)(F)F)C(F)(F)F
4. CCC(=O)Nc1ccc(F)cc1
5. COc1ccc(C(=O)/C=C/c2ccc(OC)c(Br)c2)cc1

## Result
["109 % of control", "100 % of control", "112 % of control", "94 % of control", "95 % of control"]

// input: 3 compounds below; output: T/C for each
1. CCOC(=O)C1(C(=O)OCC)CCC(O)N1C(=O)c1cc2c(cc1[N+](=O)[O-])OCO2 (stereo unspecified)
2. CCCCCCCCCCCCCCCCOc1ccc(S(=O)(=O)c2ccccc2)cc1[N+](=O)[O-]
3. CC12C=CC(C=C1)C(O)C2 (stereo unspecified)

## Result
1: 99 % of control; 2: 94 % of control; 3: 96 % of control

## Task Report T/C for COc1ccccc1NC(=S)Nc1ccccc1OC please.
## Result 98 % of control

====

System: L1210 leukemia ip in BDF1 mice, survival T/C
Assay: NCI In Vivo Anticancer Drug Screen. Data for tumor model L1210 Leukemia (intraperitoneal) in B6D2F1 (BDF1) mice
Settings: endpoint: mean survival time; dose: 400.0 mg/kg/injection; schedule: Q01DX009 (ip); vehicle: saline with Tween-80; higher = longer survival
Inconclusive results and toxic doses are left out. Peptide text beside a SMILES is read from it. * marks the point of attachment. Bz = O=C(c1ccccc1)*
Measured quantity: T/C

Compound	Measured quantity	Val
Cc1ccc(S(=O)(=O)OC2C(O)OCC3OC(C)(C)OC32)cc1 (stereo not given)	T/C	88 % of control

// input: 6 compounds below; output: T/C for each
1. CCOC(=O)CCCCSCCCCC(=O)OCC
2. COC(=O)C(=C(c1ccccc1)c1ccccc1)c1ccccc1C(=O)O
3. COC(=O)CNC(=O)CNC(=O)c1ccccc1 (Bz-Gly-Gly-OMe)
4. CC(C)(C)NC(=O)Nc1ccc(O)cc1
5. C=CCOC(=O)CCCCCCCCCCC
6. CC(=O)N(C)Nc1ccccc1

## Result
1. 102 % of control
2. 96 % of control
3. 87 % of control
4. 120 % of control
5. 96 % of control
6. 90 % of control

====

Answer each item with its documented T/C.
Tested on: L1210 leukemia ip in BDF1 mice, survival T/C
Assay: NCI In Vivo Anticancer Drug Screen. Data for tumor model L1210 Leukemia (intraperitoneal) in B6D2F1 (BDF1) mice
Conditions: endpoint: mean survival time; dose: 12.5 mg/kg/injection; schedule: Q04DX003 (ip); vehicle: Klucel (hydroxypropylcellulose) (HPC); higher = longer survival
Toxic doses and inconclusive results are not listed.

Compound	T/C
C[N+]12CCCc3cc(CO)cc(c31)CCC2	97 % of control
Cc1c(Cl)cc(Cl)c2ncccc12	95 % of control
CCCCCCCCCCCCCCCCc1ccc(O)cc1O	103 % of control
CCCNC(C)(C)C(SSSC(c1cccs1)C(C)(C)NCCC)c1cccs1 (stereo not given)	96 % of control

Kindly review the next compound as well.
## Task Notebook: pull reported T/C for L1210 leukemia ip in BDF1 mice, survival T/C, entry C[N+](C)(C)C1=CC=CC=C1.Br[Br-]Br
## Result 102 % of control

====

Answer each item with its documented T/C.
Tested on: L1210 leukemia ip in BDF1 mice, survival T/C
Test: NCI In Vivo Anticancer Drug Screen. Data for tumor model L1210 Leukemia (intraperitoneal) in B6D2F1 (BDF1) mice
Conditions: endpoint: mean survival time; dose: 25.0 mg/kg/injection; schedule: Q04DX002 (ip); vehicle: Klucel (hydroxypropylcellulose) (HPC); higher = longer survival
Inconclusive results and toxic doses are left out.

Take a look at these entries with their results.
Molecule	Measured quantity	Val
NC(CCl)=NCC1CCCCCCC1	T/C	100 % of control
NC(=S)Nc1cccnc1	T/C	91 % of control

// input: 6 molecules below; output: T/C for each
1. Cc1no[n+]([O-])c1-c1nc(SCC(=O)NN)n[nH]1
2. CCS(=O)(=O)OCCCl
3. CC12CC3CC(Br)(C1)CC(C#N)(C3)C2 (stereo not drawn)
4. CCP(C)(C)=S
5. COc1ccc(-c2cc3c(OC)ccc(OC)c3[nH]2)cc1OC
6. NC(CCSCc1ccccc1)C(=O)O (stereo not drawn)

## Result
["91 % of control", "97 % of control", "94 % of control", "101 % of control", "96 % of control", "97 % of control"]

====

Answer each item with its documented T/C.
Test system: L1210 leukemia ip in BDF1 mice, survival T/C
Test: NCI In Vivo Anticancer Drug Screen. Data for tumor model L1210 Leukemia (intraperitoneal) in B6D2F1 (BDF1) mice
Details: endpoint: mean survival time; dose: 200.0 mg/kg/injection; schedule: Q01DX001 (ip); vehicle: saline; higher = longer survival
Inconclusive results and toxic doses are left out.

Take a look at these entries with their results.
Compound	Assay system	T/C
CCCCCCC(/C=N\NC(=O)c1cccc2ccccc12)=C\c1ccccc1	L1210 leukemia ip in BDF1 mice, survival T/C	97 % of control
CC(C)(C#N)CCCCC(C)(C)C#N	L1210 leukemia ip in BDF1 mice, survival T/C	102 % of control
O=C(O)/C=C(\CC(=O)O)C(=O)O	L1210 leukemia ip in BDF1 mice, survival T/C	90 % of control
COC(=O)/C=C(\C)Nc1ccc(-c2ccccc2)cc1	L1210 leukemia ip in BDF1 mice, survival T/C	95 % of control
COc1cc(CC(=O)N(C)C)c([N+](=O)[O-])cc1OC	L1210 leukemia ip in BDF1 mice, survival T/C	93 % of control

// input: 5 compounds below; output: T/C for each
1. Cc1cc(Cl)nc2ccc(Cc3ccc(Cl)cc3)cc12
2. O=C(COc1ccc(Cl)c(Cl)c1)Nc1ccc[n+](Cc2cc(Cl)ccc2S(=O)(=O)F)c1
3. CC(C)(CO)C(O)C(=O)NCCC(=O)c1ccccc1 (stereo unspecified)
4. CCCCNC(C)(C)COC(=O)/C=C/c1ccc(OCCCC)cc1
5. N=C(N)S/C=C(/F)C(F)(F)CBr

## Result
92 % of control
105 % of control
92 % of control
102 % of control
113 % of control

## Task Report T/C for Cc1cc(C(=O)O)c(C)c2c1sc1ccccc12 please.
## Result 107 % of control

====

Answer each item with its documented T/C.
Tested on: L1210 leukemia ip in BDF1 mice, survival T/C
Test: NCI In Vivo Anticancer Drug Screen. Data for tumor model L1210 Leukemia (intraperitoneal) in B6D2F1 (BDF1) mice
Details: endpoint: mean survival time; dose: 200.0 mg/kg/injection; schedule: Q01DX001 (ip); vehicle: carboxymethylcellulose (CMC); higher = longer survival
Inconclusive results and toxic doses are left out.

Take a look at these entries with their results.
Compound	Assay system	T/C
O=C(c1ccccc1)N(c1ccccc1)c1ccccc1	L1210 leukemia ip in BDF1 mice, survival T/C	107 % of control
CC(=O)Nc1ccc(Cc2ccc(NC(C)=O)cc2[N+](=O)[O-])c([N+](=O)[O-])c1	L1210 leukemia ip in BDF1 mice, survival T/C	100 % of control
CC(C)(C)O[Si](OCC(F)(F)C(F)(F)C(F)(F)C(F)(F)C(F)(F)C(F)F)(OCC(F)(F)C(F)(F)C(F)(F)C(F)(F)C(F)(F)C(F)F)OC(C)(C)C	L1210 leukemia ip in BDF1 mice, survival T/C	94 % of control

// input: 2 compounds below; output: T/C for each
1. CCNC(=O)Nc1ccc(C)cc1
2. CC(c1ccccc1)C(C(=O)O)C(=O)O (stereo unspecified)

## Result
1. 97 % of control
2. 96 % of control

## Task Notebook: pull reported T/C for L1210 leukemia ip in BDF1 mice, survival T/C, entry COC1OC(COC(c2ccccc2)(c2ccccc2)c2ccccc2)C2SC12 (stereo unspecified)
## Result 100 % of control
